# reported pIC50; entries follow
Target: LRRK2 WT (Homo sapiens, UniProt Q5S007)
Sequence (Q5S007 970-2527): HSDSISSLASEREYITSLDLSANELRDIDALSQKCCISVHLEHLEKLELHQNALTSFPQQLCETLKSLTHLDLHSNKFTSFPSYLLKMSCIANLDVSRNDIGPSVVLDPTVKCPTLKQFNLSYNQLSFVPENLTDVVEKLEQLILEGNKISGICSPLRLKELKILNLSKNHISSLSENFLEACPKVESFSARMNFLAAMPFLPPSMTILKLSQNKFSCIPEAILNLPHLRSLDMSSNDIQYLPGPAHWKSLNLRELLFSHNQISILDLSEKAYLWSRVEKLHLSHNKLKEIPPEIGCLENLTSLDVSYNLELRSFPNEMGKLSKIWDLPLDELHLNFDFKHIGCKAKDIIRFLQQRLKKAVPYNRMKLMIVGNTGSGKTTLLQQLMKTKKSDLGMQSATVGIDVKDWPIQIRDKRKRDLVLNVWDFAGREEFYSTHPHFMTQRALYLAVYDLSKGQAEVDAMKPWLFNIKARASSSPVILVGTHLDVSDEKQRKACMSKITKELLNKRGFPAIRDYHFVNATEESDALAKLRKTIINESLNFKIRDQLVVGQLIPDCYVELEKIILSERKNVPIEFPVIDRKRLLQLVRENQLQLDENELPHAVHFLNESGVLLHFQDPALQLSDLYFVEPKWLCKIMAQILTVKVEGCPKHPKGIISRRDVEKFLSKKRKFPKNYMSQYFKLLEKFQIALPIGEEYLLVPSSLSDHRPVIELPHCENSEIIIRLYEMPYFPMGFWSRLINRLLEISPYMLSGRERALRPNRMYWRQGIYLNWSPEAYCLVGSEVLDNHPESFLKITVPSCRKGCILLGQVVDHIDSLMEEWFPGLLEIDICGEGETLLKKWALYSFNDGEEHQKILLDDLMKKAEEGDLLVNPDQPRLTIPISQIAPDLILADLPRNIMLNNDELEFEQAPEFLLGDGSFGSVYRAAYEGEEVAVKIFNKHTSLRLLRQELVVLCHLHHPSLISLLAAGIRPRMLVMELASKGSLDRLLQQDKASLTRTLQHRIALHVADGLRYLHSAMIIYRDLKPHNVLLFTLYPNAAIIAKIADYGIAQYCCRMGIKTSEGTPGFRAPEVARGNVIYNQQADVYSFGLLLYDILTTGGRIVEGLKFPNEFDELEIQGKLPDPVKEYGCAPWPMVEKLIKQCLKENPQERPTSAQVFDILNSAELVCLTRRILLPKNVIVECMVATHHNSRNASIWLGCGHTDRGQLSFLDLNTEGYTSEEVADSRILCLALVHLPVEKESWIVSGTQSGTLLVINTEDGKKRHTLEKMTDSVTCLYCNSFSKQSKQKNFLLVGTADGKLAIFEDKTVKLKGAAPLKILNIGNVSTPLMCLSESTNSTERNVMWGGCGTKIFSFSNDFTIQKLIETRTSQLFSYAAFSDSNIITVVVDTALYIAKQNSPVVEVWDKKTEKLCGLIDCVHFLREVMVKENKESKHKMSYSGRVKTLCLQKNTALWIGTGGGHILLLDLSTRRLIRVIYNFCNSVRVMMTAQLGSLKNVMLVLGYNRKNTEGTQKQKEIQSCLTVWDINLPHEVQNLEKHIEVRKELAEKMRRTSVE
The meaning of pIC50 here: minus log10 of the concentration in molar units.

As a guide, the following entries are already answered.
1. Cc1c2c(nn1CC13CC(CO1)C3)OCCCn1nc(Cl)c3cnc(nc31)N2: 7.85
2. Cc1c2c(nn1[C@H]1CCCCOC1)OCCCn1nc(Cl)c3cnc(nc31)N2 (single isomer, unassigned): 7.72
3. Cc1c2c(nn1C1CCOCC1)OCCCn1nc(C3CC3)c3cnc(nc31)N2: 6.68
4. Cc1c2c(nn1[C@H]1CCCOC1)OCCCn1nc(Cl)c3cnc(nc31)N2 (single isomer, unassigned) [Example 3]: 8.04
5. Cc1c2c(nn1[C@@H]1CCOC[C@@H]1C)OCCCn1nc(Cl)c3cnc(nc31)N2 (single isomer, unassigned) [Example 22]: 8.00

In: # assay system LRRK2 WT (Homo sapiens, UniProt Q5S007): give pIC50 of FC1(c2c3c(nn2C2CCOCC2)OCCCn2nc(Cl)c4cnc(nc42)N3)CC1
Out: 7.22

In: # assay system LRRK2 WT (Homo sapiens, UniProt Q5S007): give pIC50 of Cc1c2c(nn1[C@H]1CCOC[C@]1(C)F)OCCCn1nc(Cl)c3cnc(nc31)N2 (single isomer, unassigned)
Out: 7.89
